Molecular target: T1, mArtemin-MMH (mouse)
T1 construct: also called msArtemin-MMH; msARTN.mmh
T1 chain: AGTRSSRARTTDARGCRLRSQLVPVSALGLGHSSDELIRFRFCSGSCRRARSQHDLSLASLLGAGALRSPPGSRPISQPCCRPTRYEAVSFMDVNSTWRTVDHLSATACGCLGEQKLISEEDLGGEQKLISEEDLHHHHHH
Experiment: blocking ELISA, antibody blocks 150 pM msARTN.mmh binding to plate-coated hGFRa3.hFc
Here, each record is paired with measured % Blocking with 100 nM Ab data.

binder: H4H33336P (antibody, human IgG4 S228P, kappa, V domains shown, Fully human antibody; also called Artemin mAb; anti-ARTN antibody) VH: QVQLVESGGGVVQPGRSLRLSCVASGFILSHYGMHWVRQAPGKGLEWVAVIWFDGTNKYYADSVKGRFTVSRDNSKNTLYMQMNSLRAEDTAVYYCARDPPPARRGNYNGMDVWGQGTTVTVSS VL: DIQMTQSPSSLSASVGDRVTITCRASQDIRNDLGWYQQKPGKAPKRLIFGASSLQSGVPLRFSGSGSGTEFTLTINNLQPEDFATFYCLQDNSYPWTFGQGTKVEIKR
% Blocking with 100 nM Ab [%]: 81

binder: H4H33335P (antibody, human IgG4 S228P, kappa, V domains shown, Fully human antibody; also called Artemin mAb; anti-ARTN antibody) VH: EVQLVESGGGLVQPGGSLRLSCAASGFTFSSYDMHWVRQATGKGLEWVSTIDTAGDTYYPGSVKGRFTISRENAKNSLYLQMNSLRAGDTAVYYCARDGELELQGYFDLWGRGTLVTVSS VL: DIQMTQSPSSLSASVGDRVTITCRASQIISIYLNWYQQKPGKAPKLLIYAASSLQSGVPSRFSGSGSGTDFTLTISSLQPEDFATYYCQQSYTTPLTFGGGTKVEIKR
% Blocking with 100 nM Ab [%]: 63

binder: H4H33331P (antibody, human IgG4 S228P, kappa, V domains shown, Fully human antibody (human variable and constant domains) from a VELOCIMMUNE mouse; also called Artemin mAb; anti-ARTN antibody) VH: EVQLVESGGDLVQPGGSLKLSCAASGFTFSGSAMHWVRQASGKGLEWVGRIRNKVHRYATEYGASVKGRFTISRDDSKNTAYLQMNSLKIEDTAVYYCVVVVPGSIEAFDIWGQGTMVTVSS VL: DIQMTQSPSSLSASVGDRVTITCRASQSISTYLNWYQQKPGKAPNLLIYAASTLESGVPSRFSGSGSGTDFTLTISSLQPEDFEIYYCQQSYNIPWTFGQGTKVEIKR
% Blocking with 100 nM Ab [%]: 83

binder: H4H33349P (antibody, human IgG4 S228P, kappa, V domains shown, Fully human antibody; also called Artemin mAb; anti-ARTN antibody) VH: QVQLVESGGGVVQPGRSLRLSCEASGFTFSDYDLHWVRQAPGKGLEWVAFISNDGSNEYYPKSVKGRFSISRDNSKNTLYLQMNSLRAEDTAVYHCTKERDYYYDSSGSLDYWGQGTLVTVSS VL: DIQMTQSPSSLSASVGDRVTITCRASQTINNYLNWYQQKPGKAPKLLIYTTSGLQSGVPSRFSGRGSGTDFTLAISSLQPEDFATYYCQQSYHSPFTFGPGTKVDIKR
% Blocking with 100 nM Ab [%]: 88
